target: O-acyltransferase (Oryctolagus cuniculus); experiment: In vitro inhibition of acyl coenzyme A:cholesterol acyltransferase, in intestinal microsomes isolated from cholesterol-fed rabbits; set-up: species or system Intestine
OBSERVABLE: pIC50
Remember the convention: pIC50 equals -log10 of concentration in molar.

Field: example entries. Status: answers known.
# COMPOUND, pIC50
measured = [
    ("CCCCCCCC(C)(C)C(=O)Nc1c(OC)cc(OC)cc1OC", 6.74),
    ("CCCCCCCC/C=C/CCCCCCCC(=O)Nc1c(CC)cccc1CC", 7.77),
    ("CCCCCCCCCCCCCCC(C)(C)C(=O)Nc1c(OC)cc(OC)cc1OC", 7.36),
    ("CCCCCCCCCCCCCCC(C)C(=O)Nc1c(OC)cc(OC)cc1OC (stereo unspecified)", 7.51),
    ("CCCCCCCC/C=C/CCCCCCCC(=O)Nc1ccc(CC(=O)OCC)c(C)c1", 5.52),
]

Shifting focus to the compound that follows.
Query block: // lookup pIC50 for "CCCCCCCC/C=C/CCCCCCCC(=O)Nc1cccc(C)c1[N+](=O)[O-]"
Result block: 4.92

* * *

Reported IC50 by item:
target: O-acyltransferase (Oryctolagus cuniculus, UniProt G1SFD9); assay: In vitro inhibition of acyl coenzyme A:cholesterol acyltransferase, in intestinal microsomes isolated from cholesterol-fed rabbits; design: species or system Intestine
Sequence (G1SFD9 1-524): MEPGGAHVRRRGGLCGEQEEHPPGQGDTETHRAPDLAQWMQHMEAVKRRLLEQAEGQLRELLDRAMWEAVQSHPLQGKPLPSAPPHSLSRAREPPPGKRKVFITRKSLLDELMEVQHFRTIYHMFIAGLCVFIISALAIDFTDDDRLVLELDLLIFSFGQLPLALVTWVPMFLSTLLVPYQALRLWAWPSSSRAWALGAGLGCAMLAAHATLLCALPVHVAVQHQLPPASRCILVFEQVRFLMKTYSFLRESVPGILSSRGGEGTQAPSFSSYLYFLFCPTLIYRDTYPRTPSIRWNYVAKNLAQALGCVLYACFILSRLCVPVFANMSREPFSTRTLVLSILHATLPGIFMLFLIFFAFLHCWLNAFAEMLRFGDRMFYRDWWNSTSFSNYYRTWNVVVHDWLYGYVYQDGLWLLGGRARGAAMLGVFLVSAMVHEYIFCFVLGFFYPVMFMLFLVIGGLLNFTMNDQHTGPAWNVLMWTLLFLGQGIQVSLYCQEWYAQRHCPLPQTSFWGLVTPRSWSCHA
Entry rule: numbers only, all in nM.

Take a look at these entries with their results.
# COMPOUND, OBSERVED VALUE
rows = [
    ("CCCCCCCCCCC1(C(=O)Nc2c(OC)cc(OC)cc2OC)CCCCC1", 70),
    ("CCCCCCCCCCCCCC(=O)Nc1c(OC)cc(OC)cc1OC", 190),
    ("CCCCCCCC/C=C/CCCCCCCC(=O)Nc1c(O)cc(OC)cc1OC", 150),
]

Query block: Need IC50 of "CCCCCCCC/C=C/CCCCCCCC(=O)Nc1cc(C(=O)OC)c(OC)cc1OC" , thanks.
Result block: 1100

Query block: Requested read-out: IC50. Entry: "CCCCCCCC/C=C/CCCCCCCC(=O)Nc1c(C(C)C)cccc1C(C)C"
Result block: 7

Query block: Recorded IC50 for "CCCCCCCCCCC(C)(C)C(=O)Nc1c(C)cccc1OCC" , please?
Result block: 180

Query block: Query (compound): "CCCCCCCC/C=C/CCCCCCCC(=O)Nc1ccccc1C(C)C" ; field requested: IC50
Result block: 600

Query block: Give the measured IC50 of "CCCCCCCCCCC(C)(C)C(=O)Nc1c(C)cc(Br)cc1C" .
Result block: 410

Query block: Tell me the measured IC50 of CCCCCCCCCCCCC(CC)C(=O)Nc1c(OC)cc(OC)cc1OC (centres undefined) , please.
Result block: 52

Query block: Which IC50 value belongs to "CCCCCCCCCCC1(C(=O)Nc2c(OC)cc(OC)cc2OC)CCCC1" ?
Result block: 32

Query block: // returns reported IC50 for input "CCCCCCCCCCC(C)(C)C(=O)Nc1c(C)cccc1C"
Result block: 1300

Query block: Reported IC50 for "CCCCCCCC/C=C/CCCCCCCC(=O)Nc1c(C)cccc1OCC" : what is it?
Result block: 15

Query block: IC50 for "CCCCCCCCCCCCCCCC(=O)Nc1c(OC)cc(OC)cc1OC" ?
Result block: 54

Query block: Please report the recorded IC50 for "CCCCCCCCCCC(C)(C)C(=O)Nc1cc(C(=O)OC)ccc1OC" .
Result block: 130

Query block: If you can, please state the reported IC50 value of "CCCCCCCCCCC(C)(C)C(=O)Nc1c(O)cc(OC)cc1OC" .
Result block: 590

Query block: Request the reported IC50 associated with "CCCCCCCCC(C)(C)C(=O)Nc1c(OC)cc(OC)cc1OC"
Result block: 59

Query block: Item under review: "CCCCCCCCCCC1(C(=O)Nc2c(OC)cc(OC)cc2OC)CCC1" . Reported IC50?
Result block: 39

Query block: Record request: IC50 value, item "CCCCCCCC/C=C/CCCCCCCC(=O)Nc1cc(OC)c(OC)cc1OC"
Result block: 1100

Values were extracted from ChEMBL document CHEMBL1125457.
